These data points were gathered from patent US20040018971A1.

Documented IC50 across a set of binders
# tested_system: HLA-B*0702 (human)
# assay_notes: competition with 125I probe peptide, purified HLA
Write the number in nM without appending the unit.

Use these answered entries as a reference point.
LPTNASLSFL (native HER2/neu peptide from position 65) [Her2/neu.65 (10-mer)]; 290
FPTNASLSFI (analog peptide) [Her2/neu.65.F1I10]; 120
SPGGLREL [Her2/neu.133 (8-mer)]; 100
FPHQALLHTA (analog peptide) [Her2/neu.488.F1]; 393
FPDLSYMPI (analog peptide) [Her2/neu.605.F1]; 22

Lab note: next binder to report on.
Query: Quick one: IC50 for WPDSLPDI (analog peptide) [Her2/neu.415.I8] ?
Response: 71
